# study.system: recombinant human PDE-10 enzyme (human PDE-10A) (Homo sapiens (Human))
# Sequence (Q9Y233 whole entry): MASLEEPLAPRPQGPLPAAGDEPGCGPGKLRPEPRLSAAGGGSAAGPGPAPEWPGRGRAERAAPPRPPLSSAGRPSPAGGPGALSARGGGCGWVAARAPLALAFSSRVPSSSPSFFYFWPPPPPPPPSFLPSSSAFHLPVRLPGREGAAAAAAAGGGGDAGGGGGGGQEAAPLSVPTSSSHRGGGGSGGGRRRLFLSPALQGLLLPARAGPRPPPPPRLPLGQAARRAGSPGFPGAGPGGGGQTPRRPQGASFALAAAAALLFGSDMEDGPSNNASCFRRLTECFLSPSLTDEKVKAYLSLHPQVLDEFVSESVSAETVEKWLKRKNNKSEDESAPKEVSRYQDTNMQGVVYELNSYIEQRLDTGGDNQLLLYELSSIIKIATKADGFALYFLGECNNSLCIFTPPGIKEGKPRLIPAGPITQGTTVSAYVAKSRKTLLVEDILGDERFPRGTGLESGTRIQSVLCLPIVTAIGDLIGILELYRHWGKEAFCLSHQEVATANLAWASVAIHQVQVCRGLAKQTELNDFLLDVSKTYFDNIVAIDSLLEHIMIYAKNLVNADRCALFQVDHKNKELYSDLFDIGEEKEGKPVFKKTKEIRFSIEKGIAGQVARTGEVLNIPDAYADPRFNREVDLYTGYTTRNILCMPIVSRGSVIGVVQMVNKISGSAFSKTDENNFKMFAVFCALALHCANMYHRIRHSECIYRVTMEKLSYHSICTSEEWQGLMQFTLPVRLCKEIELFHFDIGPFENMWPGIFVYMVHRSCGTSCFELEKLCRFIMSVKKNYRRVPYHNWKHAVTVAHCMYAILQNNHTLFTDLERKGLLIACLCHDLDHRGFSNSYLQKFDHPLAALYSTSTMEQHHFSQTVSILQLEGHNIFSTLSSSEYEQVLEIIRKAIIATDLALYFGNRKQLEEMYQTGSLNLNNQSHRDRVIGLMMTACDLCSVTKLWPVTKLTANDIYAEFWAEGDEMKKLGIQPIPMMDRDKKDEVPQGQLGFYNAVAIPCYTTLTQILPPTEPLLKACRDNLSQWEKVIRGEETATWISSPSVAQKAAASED
# assay.overview: PDE-10A enzymatic assay (Molecular Devices IMAP PDE Fluorescence Polarization)
# condition.parameters: recombinant human PDE-10, fluorescein-labeled cAMP/cGMP substrate, 40 min at 37° C.
measured.property: IC50

Exercise: Please indicate IC50 recorded for O=c1[nH]c(CCc2nc(-c3ccccc3)c[nH]2)nc2ccccc12 [Compound 14]
Key: 1 to 10 µM

Data origin: patent US10562916B2
